zone of inhibition at 80 µM by entry:
Test system: Aspergillus niger
Assay: Antifungal activity against Aspergillus niger MTCC 1108 assessed as zone of inhibition at 80 uM after 48 hrs by disc diffusion method
Assay type: functional
Settings: MTCC 1108, 48 h, read-out: IZ
Output spec: scalar in mm, unitless text.

Example results:
INSERT INTO assay_data (mol_smiles, observed_value) VALUES
  ('COc1cc(/C=C/C(CC(/C=C/c2ccc(O)c(OC)c2)=N/c2ccc(S(=O)(=O)Nc3ccccn3)cc2)=N\c2ccc(S(=O)(=O)Nc3ccccn3)cc2)ccc1O', 12),
  ('COc1cc(/C=C/C(CC(/C=C/c2ccc(O)c(OC)c2)=N/c2ccc(S(N)(=O)=O)cc2)=N\c2ccc(S(N)(=O)=O)cc2)ccc1O', 9);

Next compound, zone of inhibition at 80 µM to be filled in.
Exam item: I'd like to know its zone of inhibition at 80 µM. The compound in question is COc1cc(/C=C/C(CC(/C=C/c2ccc(O)c(OC)c2)=N/c2ccc(S(=O)(=O)Nc3nc(C)cc(C)n3)cc2)=N\c2ccc(S(=O)(=O)Nc3nc(C)cc(C)n3)cc2)ccc1O
Marked response: 14

* * *

Tested on: Mus musculus
Assay: Antiinflammatory activity in mouse assessed as inhibition of carrageenan-induced increase in paw volume at 200 mg/kg administered 1 hr prior to carrageenan challenge measured after 3 hrs relative to control
Type: functional
inhibition in vivo at 200 mg/kg by entry:
Output spec: scalar in %, unitless text.

INSERT INTO results (mol_smiles, observed_value) VALUES
  ('COc1cc(/C=C/C(=O)C(/N=N/c2ccc(S(N)(=O)=O)cc2)=C(O)/C=C/c2ccc(O)c(OC)c2)ccc1O', 16.1),
  ('COc1cc(/C=C/c2nn(-c3ccccc3)c(/C=C/c3ccc(O)c(OC)c3)c2/N=N/c2ccc(S(=O)(=O)Nc3ccccn3)cc2)ccc1O', 20.9),
  ('COc1ccc(NS(=O)(=O)c2ccc(/N=N/c3c(/C=C/c4ccc(O)c(OC)c4)noc3/C=C/c3ccc(O)c(OC)c3)cc2)nn1', 48.3),
  ('COc1cc(/C=C/C(=O)C(/N=N/c2ccc(S(=O)(=O)Nc3nc(C)cc(C)n3)cc2)=C(O)/C=C/c2ccc(O)c(OC)c2)ccc1O', 33.8),
  ('COc1cc(/C=C/c2nn(-c3ccccc3)c(/C=C/c3ccc(O)c(OC)c3)c2/N=N/c2ccc(S(=O)(=O)Nc3cc(C)on3)cc2)ccc1O', 25.8);

Exam item: I'd like to know its inhibition in vivo at 200 mg/kg. The compound in question is COc1cc(/C=C/c2noc(/C=C/c3ccc(O)c(OC)c3)c2/N=N/c2ccc(S(N)(=O)=O)cc2)ccc1O
Marked response: 24.1

Exam item: And for COc1cc(/C=C/C(CC(/C=C/c2ccc(O)c(OC)c2)=N/c2ccc(S(N)(=O)=O)cc2)=N\c2ccc(S(N)(=O)=O)cc2)ccc1O ?
Marked response: 12.9

* * *

System: HCT-116
Experiment: Cytotoxicity against human HCT116 cells after 24 hrs by MTT assay
Assay type: functional, cell-based
REPORTED METRIC: IC50

Example results:
INSERT INTO assay_data (mol_smiles, measurement_target, observed_value) VALUES
  ('COc1ccc(NS(=O)(=O)c2ccc(/N=N/C(C(=O)/C=C/c3ccc(O)c(OC)c3)=C(O)\C=C\c3ccc(O)c(OC)c3)cc2)nn1', 'HCT-116', 'Not Active'),
  ('COc1cc(/C=C/c2noc(/C=C/c3ccc(O)c(OC)c3)c2/N=N/c2ccc(S(=O)(=O)Nc3nc(C)cc(C)n3)cc2)ccc1O', 'HCT-116', 'Not Active'),
  ('COc1cc(/C=C/C(=O)C(/N=N/c2ccc(S(=O)(=O)Nc3nc(C)cc(C)n3)cc2)=C(O)/C=C/c2ccc(O)c(OC)c2)ccc1O', 'HCT-116', 'Not Active'),
  ('COc1cc(/C=C/C(O)=C/C(/C=C/c2ccc(O)c(OC)c2)=N/c2ccc(S(=O)(=O)Nc3ccccn3)cc2)ccc1O', 'HCT-116', '25 µM'),
  ('COc1cc(/C=C/c2nn(-c3ccccc3)c(/C=C/c3ccc(O)c(OC)c3)c2/N=N/c2ccc(S(=O)(=O)Nc3nc(C)cc(C)n3)cc2)ccc1O', 'HCT-116', 'Not Active');

Exam item: I'd like to know its IC50. The molecule in question is COc1cc(/C=C/c2noc(/C=C/c3ccc(O)c(OC)c3)c2/N=N/c2ccc(S(N)(=O)=O)cc2)ccc1O
Marked response: Not Active

Exam item: And for COc1cc(/C=C/c2nn(-c3ccccc3)c(/C=C/c3ccc(O)c(OC)c3)c2/N=N/c2ccc(S(=O)(=O)Nc3ccccn3)cc2)ccc1O ?
Marked response: Not Active

* * *

MIC by entry:
System: Salmonella typhi
Experiment: Antimicrobial activity against Salmonella typhi ATCC 23564 after 24 hrs by broth micro serial dilution method
Assay type: functional, Salmonella enterica subsp. enterica serovar Typhi
Conditions: Salmonella enterica, ATCC 23564, 24 h
Output spec: scalar in µM, unitless text.

INSERT INTO assay_data (mol_smiles, reported_metric, observed_value) VALUES
  ('COc1cc(/C=C/C(O)=C/C(/C=C/c2ccc(O)c(OC)c2)=N/c2ccc(S(=O)(=O)Nc3nc(C)cc(C)n3)cc2)ccc1O', 'MIC', 20),
  ('COc1ccc(NS(=O)(=O)c2ccc(/N=N/c3c(/C=C/c4ccc(O)c(OC)c4)noc3/C=C/c3ccc(O)c(OC)c3)cc2)nn1', 'MIC', 80),
  ('COc1ccc(NS(=O)(=O)c2ccc(/N=C(\C=C\c3ccc(O)c(OC)c3)CC(/C=C/c3ccc(O)c(OC)c3)=N/c3ccc(S(=O)(=O)Nc4ccc(OC)nn4)cc3)cc2)nn1', 'MIC', 40);

Exam item: I'd like to know its MIC. The molecule in question is COc1cc(/C=C/c2noc(/C=C/c3ccc(O)c(OC)c3)c2/N=N/c2ccc(S(=O)(=O)Nc3ccccn3)cc2)ccc1O
Marked response: 80

Exam item: And for COc1cc(/C=C/C(O)=C/C(/C=C/c2ccc(O)c(OC)c2)=N/c2ccc(S(=O)(=O)Nc3cc(C)on3)cc2)ccc1O ?
Marked response: 20

Exam item: And for COc1cc(/C=C/C(CC(/C=C/c2ccc(O)c(OC)c2)=N/c2ccc(S(N)(=O)=O)cc2)=N\c2ccc(S(N)(=O)=O)cc2)ccc1O ?
Marked response: 40

Exam item: And for O=C(O)c1cn(C2CC2)c2cc(N3CCNCC3)c(F)cc2c1=O ?
Marked response: 2.5

Exam item: And for COc1cc(/C=C/C(O)=C/C(/C=C/c2ccc(O)c(OC)c2)=N/c2ccc(S(N)(=O)=O)cc2)ccc1O ?
Marked response: 40

* * *

zone of inhibition at 40 µM by entry:
System: Aspergillus flavus
Assay: Antifungal activity against Aspergillus flavus MTCC 1021 assessed as zone of inhibition at 40 uM after 48 hrs by disc diffusion method
Type: functional
Conditions: MTCC 1021, 48 h, read-out: IZ
Output spec: scalar in mm, unitless text.

INSERT INTO measurements (mol_smiles, uom, observed_value) VALUES
  ('COc1cc(/C=C/C(=O)C(/N=N/c2ccc(S(=O)(=O)Nc3nc(C)cc(C)n3)cc2)=C(O)/C=C/c2ccc(O)c(OC)c2)ccc1O', 'mm', 13),
  ('COc1cc(/C=C/C(CC(/C=C/c2ccc(O)c(OC)c2)=N/c2ccc(S(=O)(=O)Nc3nc(C)cc(C)n3)cc2)=N\c2ccc(S(=O)(=O)Nc3nc(C)cc(C)n3)cc2)ccc1O', 'mm', 11),
  ('COc1cc(/C=C/C(O)=C/C(/C=C/c2ccc(O)c(OC)c2)=N/c2ccc(S(=O)(=O)Nc3cc(C)on3)cc2)ccc1O', 'mm', 9),
  ('COc1cc(/C=C/C(=O)C(/N=N/c2ccc(S(=O)(=O)Nc3cc(C)on3)cc2)=C(O)/C=C/c2ccc(O)c(OC)c2)ccc1O', 'mm', 9);

Exam item: I'd like to know its zone of inhibition at 40 µM. The molecule in question is COc1cc(/C=C/C(=O)C(/N=N/c2ccc(S(N)(=O)=O)cc2)=C(O)/C=C/c2ccc(O)c(OC)c2)ccc1O
Marked response: 9

Exam item: And for COc1cc(/C=C/C(=O)C(/N=N/c2ccc(S(=O)(=O)Nc3ccccn3)cc2)=C(O)/C=C/c2ccc(O)c(OC)c2)ccc1O ?
Marked response: 12

Exam item: And for COc1ccc(NS(=O)(=O)c2ccc(/N=C(/C=C(O)/C=C/c3ccc(O)c(OC)c3)\C=C\c3ccc(O)c(OC)c3)cc2)nn1 ?
Marked response: 9

* * *

MIC by entry:
System: Aspergillus niger
Assay: Antifungal activity against Aspergillus niger MTCC 1108 after 48 hrs
Format: functional
Conditions: MTCC 1108, 48 h
Output spec: scalar in µM, unitless text.

Example results:
INSERT INTO assay_data (mol_smiles, observed_value) VALUES
  ('COc1cc(/C=C/C(CC(/C=C/c2ccc(O)c(OC)c2)=N/c2ccc(S(=O)(=O)Nc3ccccn3)cc2)=N\c2ccc(S(=O)(=O)Nc3ccccn3)cc2)ccc1O', 80),
  ('COc1cc(/C=C/C(=O)C(/N=N/c2ccc(S(=O)(=O)Nc3nc(C)cc(C)n3)cc2)=C(O)/C=C/c2ccc(O)c(OC)c2)ccc1O', 40),
  ('COc1cc(/C=C/C(O)=C/C(/C=C/c2ccc(O)c(OC)c2)=N/c2ccc(S(N)(=O)=O)cc2)ccc1O', 40),
  ('COc1cc(/C=C/C(=O)C(/N=N/c2ccc(S(=O)(=O)Nc3ccccn3)cc2)=C(O)/C=C/c2ccc(O)c(OC)c2)ccc1O', 40),
  ('COc1cc(/C=C/C(CC(/C=C/c2ccc(O)c(OC)c2)=N/c2ccc(S(=O)(=O)Nc3nc(C)cc(C)n3)cc2)=N\c2ccc(S(=O)(=O)Nc3nc(C)cc(C)n3)cc2)ccc1O', 40),
  ('COc1cc(/C=C/C(O)=C/C(/C=C/c2ccc(O)c(OC)c2)=N/c2ccc(S(=O)(=O)Nc3nc(C)cc(C)n3)cc2)ccc1O', 20),
  ('COc1cc(/C=C/C(O)=C/C(/C=C/c2ccc(O)c(OC)c2)=N/c2ccc(S(=O)(=O)Nc3ccccn3)cc2)ccc1O', 40);

Next molecule, MIC to be filled in.
Exam item: I'd like to know its MIC. The molecule in question is COc1ccc(NS(=O)(=O)c2ccc(/N=C(\C=C\c3ccc(O)c(OC)c3)CC(/C=C/c3ccc(O)c(OC)c3)=N/c3ccc(S(=O)(=O)Nc4ccc(OC)nn4)cc3)cc2)nn1
Marked response: 40
